meta.source: PubChem BioAssay (NCI)

Tested on: DU-145 prostate
Assay Summary: NCI-60 one-dose screen, 48 h (100 = growth as untreated, 0 = no growth, -100 = all killed)
Experimental Conditions: 10 µM unless noted
This is part of a sample that, as a whole, favours compounds with a hit. Of some 83,000 tested, about 20% had one in any assay.

Sample Smiles	Output Unit	growth
COc1ccc(Cl)cc1Nc1nc(C(F)(F)F)ccc1C(=O)N/N=C/c1cccnc1	%	53.7
Cc1cc(Nc2nc(N3CCOCC3)nc3ccccc23)n[nH]1	%	75.2
COc1cc(/C=N/N(C)C)ccc1O	%	110
NC(=S)N/N=C/c1cc(-c2cccc(N)c2)ccn1	%	28.1
C[C@@H]1CC[C@@H]2[C@@H]1[C@H](OC(=O)/C=C/c1ccccc1)[C@]1(c3ccccc3)C[C@@H](OC(=O)CO)[C@@]2(C)O1	%	102
COc1ccc(S(=O)(=O)NCCCNc2nccc(-c3c(-c4cccc(N)c4)nc4sccn34)n2)cc1	%	92.1

* * *

Test system: CCRF-CEM leukemia
Assay Summary: NCI-60 one-dose screen, 48 h (100 = growth as untreated, 0 = no growth, -100 = all killed)
Experimental Conditions: 10 µM unless noted
About 83,000 compounds went through this panel and 20% of them were active in at least one assay; those are over-represented in the sample as a whole.

Sample Smiles	growth [%]
CCCCCC(=O)N(CCCC)CCCC	99.1
CCOC(=O)c1nc(Nc2cc(C)[nH]n2)c2ccccc2n1	96.9
COc1ccc2nc(NC(=O)c3cccnc3Nc3cc(OC)c(OC)c(OC)c3)sc2c1	48.6
Cn1cc(-c2csc(-c3cn(C)c4ncccc34)n2)c2ccccc21	10.1
COc1ccc(OCC(=O)Nc2ccc(-c3nc4ccccc4s3)cc2C)cc1	89.6

* * *

Test system: SK-MEL-28 melanoma
Assay Summary: NCI-60 one-dose screen, 48 h
Experimental Conditions: 10 µM unless noted
The panel holds about 83,000 compounds, 20% with a hit somewhere; the sample as a whole holds those more often. The source made the active and inactive calls. Rule for the calls: active = growth percent below 10; inactive = the rest.
Outcome codes: active, inactive

Sample Smiles	Class Name
CCOC(=O)c1c2c(n3ccc(NC(=O)CCN4CCCCC4)cc13)C(=O)c1ncccc1C2=O	active
O=C(CN1CCN(c2cc3c(cc2F)c(=O)c(C(=O)O)cn3C2CC2)CC1)Nc1nc(-c2ccccc2)cs1	inactive
COc1ccc(-c2csc(NC(=O)CN3CCN(c4cc5c(cc4F)c(=O)c(C(=O)O)cn5C4CC4)CC3)n2)cc1	inactive
COc1cc(/C=N/N(C)C)ccc1O	inactive
COCCCN=C(N)c1ccc(NC(=O)c2ccc(C(=O)Nc3ccc(C(N)=NCCCOC)cc3)cc2)cc1	inactive

* * *

System: HCT-116 colon
Assay Summary: NCI-60 one-dose screen, 48 h
Experimental Conditions: 10 µM unless noted
This is part of a sample that, as a whole, favours compounds with a hit. Of some 83,000 tested, about 20% had one in any assay. Activity calls are given as the source filed them. The calls were made as follows: active = growth percent below 10; inactive = the rest.
Classes used: active, inactive

Compound	Class Name
CC1=C(NCCN2CCCC2)C(=O)c2c(OCc3cccc(Cl)c3)cccc2C1=O	inactive
CCc1ccccc1NC(=O)c1sc2nc3c(cc2c1N)C(=O)CCC3	inactive
COc1ccc(CCN2CCCn3c2nc2ccccc2c3=O)cc1	inactive
C#Cc1nc2ccccc2c(=O)[nH]1	active
O=c1c2cccc3c(Nc4ccccn4)ccc(c32)c2nc3ccccc3n12	inactive
Nc1ccc(N2CCOCC2)cc1	inactive
CC(=O)O[C@H]1CC[C@]2(C)[C@H]3CC[C@@H]4[C@H]5[C@H](C(C)C)CC[C@]5(C(=O)OCC(CO)(CO)N=C(N)N)CC[C@@]4(C)[C@]3(C)CC[C@H]2C1(C)C	active
CC[C@H](Nc1nc(N)nc(C)c1C#N)c1nc2cccc(NCc3ccc(C(=O)NO)cc3)c2c(=O)n1-c1ccccc1	active
COc1cnc2c(c1)C(=O)c1c-2n(CCCBr)c(=O)c2cc([N+](=O)[O-])ccc12	active
COc1ccc2c(c1)C(=O)/C(=C/c1cccc(OCC(=O)Nc3nc4c(s3)CCCC4)c1)O2	active
CN1Cc2c(cc(CN3CCCCC3)n2C)C(c2ccc(Br)cc2)C1 (stereo not given)	inactive
COc1cnc2c(c1)C(=O)c1c-2n(CCCN2CCNCC2)c(=O)c2cc([N+](=O)[O-])ccc12	active
O=C(O)c1cccnc1Br	inactive
CCOC(=O)C(C#N)C1CCCCC1 (stereo not given)	inactive
COc1ccc(/C=C/C(=O)c2c(O)c(C)c(O)c3c2OC2=CC(O)=C(C(C)=O)C(=O)[C@]23C)cc1	active
CC(C)c1c(C(=O)Nc2ccccc2)c(-c2ccccc2)c(-c2ccc(F)cc2)n1CC[C@@H]1CC=CC(=O)O1	active
O=C(CCCN1CCOCC1)Nc1ccc(Cn2nnc3c2C(=O)c2nnn(Cc4ccc(NC(=O)CCCN5CCOCC5)cc4)c2C3=O)cc1	active
CCCCCC(=O)N(CCCC)CCCC	inactive
C=C(C[n+]1ccccc1)[C@@H]1CC[C@]2(C(=O)OC)CC[C@]3(C)[C@H](CC[C@@H]4[C@@]5(C)CC[C@H](O)C(C)(C)[C@@H]5CC[C@]43C)[C@@H]12	inactive
NS(=O)(=O)c1ccc(Nc2nc3n[nH]c(Nc4ccccc4)c3c(=O)[nH]2)cc1	inactive
COc1ccc(S(=O)(=O)NCCCNc2cc(-c3c(-c4cccc(OC)c4)nc4sccn34)ccn2)cc1	inactive
COc1cc(C2C(C(=O)c3cccs3)=C(O)C(=O)N2CCN2CCOCC2)cc(OC)c1OC (stereo not given)	inactive
O=C(CN1CCOCC1)Nc1ccc(Cn2nnc3c2C(=O)c2nnn(Cc4ccc(NC(=O)CN5CCOCC5)cc4)c2C3=O)cc1	active
CCOC(=O)/C=C/C(=O)[C@H](CC(C)C)NC(=O)[C@H](Cc1ccccc1)NC(=O)OCc1ccccc1	inactive
CSc1nc2sc3c(c2c(=O)n1-c1ccc(C(C)C)cc1)CCC(=O)C3	active
COc1ccc(Cl)cc1Nc1nc(C(F)(F)F)ccc1C(=O)N/N=C/c1cccnc1	inactive
CN1CCN(Cc2ccc(NC(=O)c3[nH]ncc3Nc3ncnc4c3CCC4)cc2)CC1	active
COc1ccc(C(=O)c2sc3nc4c(cc3c2N)CCCC4)cc1OC	inactive
CC1(C)OCC2OC3(C(=O)O)OC(C)(C)OC3C2O1 (stereo not given)	inactive
COc1ccc(-c2cc(C(=O)N=Nc3c(O)[nH]c4ccccc34)no2)cc1	inactive
